- assayed system: T1, human CD1a protein (pool B) (human, UniProt P06126 18-295, limits assumed)
- T1 construct: Recombinant protein of the ELISA (coated) and the Biacore T200 titration; whole entry named; also called human CD1a pool B; full length CD1a
- T1 sequence (P06126 18-295 limits assumed): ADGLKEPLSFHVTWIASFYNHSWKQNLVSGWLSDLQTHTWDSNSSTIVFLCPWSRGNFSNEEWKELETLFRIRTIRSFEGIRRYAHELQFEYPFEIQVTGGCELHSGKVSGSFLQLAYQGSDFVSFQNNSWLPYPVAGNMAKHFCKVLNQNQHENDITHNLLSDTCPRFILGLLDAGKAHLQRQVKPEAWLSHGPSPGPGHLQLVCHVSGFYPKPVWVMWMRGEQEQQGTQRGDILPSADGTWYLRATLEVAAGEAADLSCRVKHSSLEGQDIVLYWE
- procedure details: ELISA, 31.6 µg/ml antibody
measure: Optical Density (OD)
One number for each entry, in OD.

Task: State its Optical Density (OD) for this binder: 77A (VR11851) (antibody, V domains shown, also called OX77a; antibody 77a) VH: QSVEESGGRLVTPGTPLTLTCTVSGFSLSSYAMSWVRQAPGKGLEWIGIISSSGTTYYASWAKGRFTISKTSTTVDLKITSPTTEDTATYFCARVDYYSSGWGGLWGPGTLVTVSS VL: AVEMTQTPASMSAAVGGTVTIKCQASEDIYSNLAWYQQKPGQPPKLLIYGASTLASGVPSRFKGSGSGTEYTLTISGVQCDDAATYYCQCTYDTSSYGNTFGGGTEMVVE
Output: 1.28

Attribution: patent US20250289893A1
